Assay Explanation: chemical genetic growth profiling, strain panel (AID 1159580);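 note: tested at 20 µM; growth read once vehicle control cultures reached saturation at 30 °C; 1 = growth at the plate median or of vehicle wells; lower values mean less growth of the strain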
Measurement Conditions: S. cerevisiae deletion strains, growth OD, strain wtn01
In all, about 5,500 compounds went through this assay and about 2,000 (36%) were called active. Another 18% or so got no clear call; they are omitted. Cut-off read from the data, not from the text of the source: active = normalized growth mostly below about 0.91 (no sharp cut-off); inconclusive = no clear call, values can overlap the other calls; inactive = mostly above about 0.92. The list shows a part of the results.
// one of active, inactive, no free text

{"Compound": "CCCCN(CCCC)CCCOC(=O)c1ccc(N)cc1", "Class Name": "inactive"}
{"Compound": "CCC(C)(C)C(=O)O[C@H]1C[C@@H](C)C=C2C=C[C@H](C)[C@H](CC[C@@H]3C[C@@H](O)CC(=O)O3)[C@H]21", "Class Name": "inactive"}
{"Compound": "COc1cc(-c2coc3cc(OCc4ccccc4)c(OC)c(O)c3c2=O)cc(OCc2ccccc2)c1OC", "Class Name": "inactive"}
{"Compound": "CC(=O)OC1CCC2(C)C(=CC=C3C2CCC2(C)C3CCC2C(C)/C=C/C(C)C(C)C)C1(C)C (stereo not given)", "Class Name": "inactive"}
{"Compound": "CC(C)C(C)/C=C/C(C)[C@H]1CCC2C3=CCC4CC(=O)CC[C@]4(C)C3CC[C@@]21C (stereo not given in full)", "Class Name": "inactive"}
{"Compound": "COc1cc(-c2coc3cc(OC)c(OC)c(OC)c3c2=O)cc(OC)c1OC", "Class Name": "inactive"}

In: So what was the verdict on `CCCCOC(=O)c1ccccc1C(=O)OCCCC` in this test?
Out: inactive

In: Each compound tested received a call. Report the one for `CCCCCCOc1ccccc1C(N)=O` .
Out: active

In: Could you kindly confirm the outcome this assay logged for CC[C@H](C)C(=O)O[C@H]1CCC=C2C=C[C@H](C)C(CCC3C[C@@H](O)CC(=O)O3)[C@H]21 (stereo not given in full) ?
Out: inactive

In: Outcome? C[N+]1(C)C2CC(OC(=O)[C@@H](CO)c3ccccc3)CC1C1OC12 (stereo not given in full)
Out: inactive

* * *

Assay Explanation: chemical genetic growth profiling, strain panel (AID 1159580);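 note: tested at 20 µM; growth read once vehicle control cultures reached saturation at 30 °C; 1 = growth at the plate median or of vehicle wells; lower values mean less growth of the strain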
Measurement Conditions: S. cerevisiae deletion strains, growth OD, locus YJR043C, strain POL32, stronger effect = lower value
The whole screen tested about 5,500 compounds, of which about 2,000 (36%) were called active. Another 18% or so got no clear call; they are omitted. This is one part of the list.
Measure: normalized growth
Keep it simple and answer with nothing but the number.

{"Compound": "C=C1C(=O)O[C@@H]2C[C@@]3(C)CCC[C@H](C)C3=C[C@H]12", "normalized growth": 0.88}
{"Compound": "Cc1ccc(CC(=O)O)cc1", "normalized growth": 0.959}
{"Compound": "COc1cc(-c2coc3cc(OCc4ccccc4)c(OC)c(O)c3c2=O)cc(OCc2ccccc2)c1OC", "normalized growth": 1.04}
{"Compound": "C=C1CCC(=O)C(C)CCC2C1CC2(C)C (stereo unspecified)", "normalized growth": 1.03}
{"Compound": "CC(C)[C@@H]1CC[C@@H](C)C[C@H]1O", "normalized growth": 1.02}
{"Compound": "O=C1[C@H](CCC(O)c2ccc(F)cc2)[C@@H](c2ccc(O)cc2)N1c1ccc(F)cc1 (stereo partly specified)", "normalized growth": 0.985}
{"Compound": "Cc1cccc(C(=O)O)c1O", "normalized growth": 1.01}
{"Compound": "O=S1OCC2C(CO1)C1(Cl)C(Cl)=C(Cl)C2(Cl)C1(Cl)Cl (stereo unspecified)", "normalized growth": 0.96}
{"Compound": "CC1(C)C2(Cl)C(Cl)C(Cl)C(Cl)(C(Cl)Cl)C1(Cl)C2Cl (stereo unspecified)", "normalized growth": 1.01}
{"Compound": "COc1cc2occ(-c3ccccc3)c(=O)c2c(OC)c1C", "normalized growth": 0.937}

Continue with the compound presented below.
# compound CC1C[C@H]2CC(=O)[C@H]3CCCN4CCC[C@H]2[C@]34C1 (stereo partly specified) ; its normalized growth = 1
